Assay: Pharmacokinetics of Compound 4 in mice (IV and PO)
Format: in vivo, BALB/c nude female mice
Conditions: female, BALB/c nude, mouse, plasma, intravenous, 2 mg/kg, 2 mg/kg IV, 0.083 hr, G2; read-out: Plasma concentration G2
Observed property: concentration at 0.083 hr (ng/mL)
Your answer should be a plain number; it is taken to be in ng/mL.

Quick one: concentration at 0.083 hr for NCCCOc1cc2ccccc2cc1C(=O)NCCCOc1cc2ccccc2cc1C(=O)Nc1ccc(Cl)cc1O ? 1980

* * *

Assay: Pharmacokinetics of Compound 4 in mice (IV and PO)
Assay type: in vivo, BALB/c nude female mice
Details: female, BALB/c nude, mouse, plasma, oral, 20 mg/kg, 20 mg/kg PO, 0.5 hr, G6; read-out: Plasma concentration G6
Observed property: concentration at 0.5 hr

Any idea what concentration at 0.5 hr was measured for NCCCOc1cc2ccccc2cc1C(=O)NCCCOc1cc2ccccc2cc1C(=O)Nc1ccc(Cl)cc1O ? 166 ng/mL

* * *

Experiment: Pharmacokinetics of Compound 4 in mice (IV and PO)
Format: in vivo, BALB/c nude female mice
Conditions: female, BALB/c nude, mouse, plasma, oral, 20 mg/kg, 20 mg/kg PO, 1 hr, mean; read-out: Plasma concentration Mean PO
Observed property: concentration at 1 hr (ng/mL)
Give the value, in units of ng/mL, as a plain number.

Endpoint output: concentration at 1 hr of NCCCOc1cc2ccccc2cc1C(=O)NCCCOc1cc2ccccc2cc1C(=O)Nc1ccc(Cl)cc1O . Value? 335

* * *

Assay: Pharmacokinetics of Compound 4 in mice (IV and PO)
Type: in vivo, BALB/c nude female mice
Conditions: female, BALB/c nude, mouse, plasma, intravenous, 2 mg/kg, 2 mg/kg IV, 24 hr, G1; read-out: Plasma concentration G1
Description: The pharmacokinetics of Compound 4 was assessed in BALB/c nude female mice. Doses were 2 mg/kg administered intravenously (IV) and 20 mg/kg administered orally (PO). The intravenous formulation was administered in 1% N-Methyl-2-pyrrolidone (NMP) in water and was a clear solution. The per os solution was in 1.3% NMP+5% Tween-20® in a clear solution.
Observed property: concentration at 24 hr (ng/mL)
Record the value in ng/mL, omitting the unit from your answer.

Would you kindly share the measured concentration at 24 hr for NCCCOc1cc2ccccc2cc1C(=O)NCCCOc1cc2ccccc2cc1C(=O)Nc1ccc(Cl)cc1O [Compound 4] ? 15.3

* * *

Assay: Pharmacokinetics of Compound 4 in mice (IV and PO)
Type: in vivo, BALB/c nude female mice
Details: female, BALB/c nude, mouse, plasma, intravenous, 2 mg/kg, 2 mg/kg IV, 0.5 hr, G3; read-out: Plasma concentration G3
Observed property: concentration at 0.5 hr (µg/mL)
Form entry: value (µg/mL) — number only.

I would be grateful if you could share the reported concentration at 0.5 hr for NCCCOc1cc2ccccc2cc1C(=O)NCCCOc1cc2ccccc2cc1C(=O)Nc1ccc(Cl)cc1O [Compound 4] . 1.17

* * *

Assay: Pharmacokinetics of Compound 4 in mice (IV and PO)
Assay type: in vivo, BALB/c nude female mice
Conditions: female, BALB/c nude, mouse, plasma, oral, 20 mg/kg, 20 mg/kg PO, 1 hr, G5; read-out: Plasma concentration G5
Observed property: concentration at 1 hr (ng/mL)
# value in ng/mL; strip the unit string

Which concentration at 1 hr is reported for this compound? NCCCOc1cc2ccccc2cc1C(=O)NCCCOc1cc2ccccc2cc1C(=O)Nc1ccc(Cl)cc1O [Compound 4] 465

* * *

Assay: Pharmacokinetics of Compound 4 in mice (IV and PO)
Format: in vivo, BALB/c nude female mice
Settings: female, BALB/c nude, mouse, plasma, oral, 20 mg/kg, 20 mg/kg PO, 24 hr, G6; read-out: Plasma concentration G6
Description: The pharmacokinetics of Compound 4 was assessed in BALB/c nude female mice. Doses were 2 mg/kg administered intravenously (IV) and 20 mg/kg administered orally (PO). The intravenous formulation was administered in 1% N-Methyl-2-pyrrolidone (NMP) in water and was a clear solution. The per os solution was in 1.3% NMP+5% Tween-20® in a clear solution.
Observed property: concentration at 24 hr (ng/mL)
Write the value in ng/mL as a bare number.

What concentration at 24 hr value was documented for this compound, NCCCOc1cc2ccccc2cc1C(=O)NCCCOc1cc2ccccc2cc1C(=O)Nc1ccc(Cl)cc1O ? 34.1

* * *

Test: Pharmacokinetics of Compound 4 in mice (IV and PO)
Format: in vivo, BALB/c nude female mice
Settings: female, BALB/c nude, mouse, plasma, intravenous, 2 mg/kg, 2 mg/kg IV, 0.083 hr, G1; read-out: Plasma concentration G1
Procedure: The pharmacokinetics of Compound 4 was assessed in BALB/c nude female mice. Doses were 2 mg/kg administered intravenously (IV) and 20 mg/kg administered orally (PO). The intravenous formulation was administered in 1% N-Methyl-2-pyrrolidone (NMP) in water and was a clear solution. The per os solution was in 1.3% NMP+5% Tween-20® in a clear solution.
Observed property: concentration at 0.083 hr (ng/mL)
Response body: numeric value in ng/mL, unit text excluded.

# get_value(readout='concentration at 0.083 hr', item= NCCCOc1cc2ccccc2cc1C(=O)NCCCOc1cc2ccccc2cc1C(=O)Nc1ccc(Cl)cc1O ) 1610

* * *

Experiment: Pharmacokinetics of Compound 4 in mice (IV and PO)
Format: in vivo, BALB/c nude female mice
Details: female, BALB/c nude, mouse, plasma, oral, 20 mg/kg, 20 mg/kg PO, 4 hr, G4; read-out: Plasma concentration G4
Observed property: concentration at 4 hr (ng/mL)
Unit ng/mL implied. Number only.

Tell me the measured concentration at 4 hr of NCCCOc1cc2ccccc2cc1C(=O)NCCCOc1cc2ccccc2cc1C(=O)Nc1ccc(Cl)cc1O , please. 128

* * *

Experiment: Pharmacokinetics of Compound 4 in mice (IV and PO)
Assay type: in vivo, BALB/c nude female mice
Details: female, BALB/c nude, mouse, plasma, intravenous, 2 mg/kg, 2 mg/kg IV, 0.25 hr, G1; read-out: Plasma concentration G1
Observed property: concentration at 0.25 hr (ng/mL)
Write the answer as a number in ng/mL, unit excluded.

So what does the record say about concentration at 0.25 hr for NCCCOc1cc2ccccc2cc1C(=O)NCCCOc1cc2ccccc2cc1C(=O)Nc1ccc(Cl)cc1O ? 1140
